So I've got a bunch of compounds here, and I need their Ratio Ki values.
Organism: Homo sapiens
PROCEDURE_DETAILS: Selectivity ratio of Ki for human delta opioid receptor to Ki for human mu opioid receptor
Give bare numbers.

Worked examples follow.
CC1C2Cc3ccc(C(=O)NCCc4ccc(-c5ccc(OC(F)(F)F)cc5)cc4)cc3C1(C)CCN2CC1CC1 (racemic) | 4
CC1C2Cc3ccc(C(=O)NCCc4ccc(-c5cccc(O)c5)cc4)cc3C1(C)CCN2CC1CC1 (racemic) | 57
CC1C2Cc3ccc(C(=O)NCCc4ccc(-c5ccc(OC(F)F)cc5)cc4)cc3C1(C)CCN2CC1CC1 (racemic) | 3
CC1C2Cc3ccc(C(=O)NCCc4ccc5ccccc5c4)cc3C1(C)CCN2CC1CC1 (racemic) | 5
COc1ccc(-c2ccc(CCNC(=O)c3ccc4c(c3)C3(C)CCN(CC5CC5)C(C4)C3C)cc2)cc1OC (racemic) | 211
COc1ccccc1-c1ccc(CCNC(=O)c2ccc3c(c2)C2(C)CCN(CC4CC4)C(C3)C2C)cc1 (racemic) | 7

Attention now shifts to the item below.
Reported Ratio Ki, compound COc1ccc(-c2ccc(CCNC(=O)c3ccc4c(c3)C3(C)CCN(CC5CC5)C(C4)C3C)cc2)cc1 (racemic) : ____
2
